Target: T1, human TPBG-hFc protein (human, UniProt Q13641 32-355)
T1 construct: range 32-355; Expressed in HEK293 cells, purified on protein A; also called immunogen A; hFc tagged TPBG protein; not shown: human IgG Fc fragment of the pCpC vector
T1 sequence (looked up): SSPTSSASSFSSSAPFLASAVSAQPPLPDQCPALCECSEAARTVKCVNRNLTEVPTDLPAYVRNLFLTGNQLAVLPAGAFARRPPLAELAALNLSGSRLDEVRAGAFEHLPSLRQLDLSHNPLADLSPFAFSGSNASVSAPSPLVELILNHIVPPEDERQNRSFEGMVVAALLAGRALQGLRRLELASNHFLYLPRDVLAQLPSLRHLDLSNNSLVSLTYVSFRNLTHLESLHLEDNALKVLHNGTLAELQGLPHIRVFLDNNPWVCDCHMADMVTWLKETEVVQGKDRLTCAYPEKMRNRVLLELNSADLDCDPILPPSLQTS
Test: ELISA, coated human TPBG-hFc
recorded.metric: pEC50
Quick note: pEC50 values are minus log10 of concentrations in mol/L.

Some entries whose results are on file:
binder	data.value
Humanized antibody 12B12-2 (antibody, V domains shown, also called h12B12-2) VH: EVQLVESGGGLVQPGGSLRLSCAASGFTFSNFGMHWVRQAPGKGLEWVAYISSGSTSFYYADTVKGRFTISRDNAKNSLYLQMNSLRDEDTAVYYCSRTNSLLRGFFDAWGQGTTVTVSS VL: DIVMTQSPDSLAVSLGERATINCRASQSVSSSSYTYLHWYQQKPGQPPKLLIYSASNLESGVPDRFSGSGSGTDFTLTISSLQAEDVAVYYCQHSWEIPLTFGQGTKLEIK	9.56
Humanized antibody 12B12-15 (antibody, V domains shown, also called h12B12-15) VH: EVQLVESGGGVVQPGRSLRLSCAASGFTFSNFGMHWVRQAPGKGLEWVAYISSGSTSFYYADTVKGRFTISRDNSKNTLYLQMNSLRAEDTAVYYCARTNSLLRGFFDAWGQGTTVTVSS VL: DIVLTQTPLSLSVTPGQPASISCRASQSVSSSSYTYLHWYLQKPGQPPQLLIKSASNLESGVPDRFSGSGSGTDFTLKISRVEAEDVGVYYCQHSWEIPLTFGQGTKLEIK	9.71
Humanized antibody 12B12-6 (antibody, V domains shown, also called h12B12-6) VH: EVQLVESGGGLVQPGGSLRLSCAASGFTFSNFGMHWVRQAPGKGLEWVAYISSGSTSFYYADTVKGRFTISRDNAKNSLYLQMNSLRDEDTAVYYCSRTNSLLRGFFDAWGQGTTVTVSS VL: DIVLTQSPDSLAVSLGERATINCRASQSVSSSSYTYLHWYQQKPGQPPKLLIKSASNLESGVPDRFSGSGSGTDFTLTISSLQAEDVAVYYCQHSWEIPLTFGQGTKLEIK	9.44
Humanized antibody 12B12-16 (antibody, V domains shown, also called h12B12-16) VH: EVQLVESGGGVVQPGRSLRLSCAASGFTFSNFGMHWVRQAPGKGLEWVAYISSGSTSFYYADTVKGRFTISRDNSKNTLYLQMNSLRAEDTAVYYCSRTNSLLRGFFDAWGQGTTVTVSS VL: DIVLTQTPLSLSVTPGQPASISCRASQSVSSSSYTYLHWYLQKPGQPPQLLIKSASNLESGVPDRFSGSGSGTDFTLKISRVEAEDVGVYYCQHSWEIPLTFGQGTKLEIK	9.70

// next entry
The reported value for Humanized antibody 12B12-10 (antibody, V domains shown, also called h12B12-10) VH: EVQLVESGGGLVQPGGSLRLSCAASGFTFSNFGMHWVRQAPGKGLEWVAYISSGSTSFYYADTVKGRFTISRDNAKNSLYLQMNSLRDEDTAVYYCSRTNSLLRGFFDAWGQGTTVTVSS VL: DIVMTQTPLSLSVTPGQPASISCRASQSVSSSSYTYLHWYLQKPGQPPQLLIYSASNLESGVPDRFSGSGSGTDFTLKISRVEAEDVGVYYCQHSWEIPLTFGQGTKLEIK in terms of pEC50 is 9.60
